B1: WDFY1 (parent)
chain: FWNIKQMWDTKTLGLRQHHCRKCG

- Variants of: B1
- experiment: protein stability index of a GFP-peptide fusion (GPS, HEK-293T) (PSI 1-6); higher = more stable;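 also: lentivirally expressed fusions sorted by FACS into six bins by GFP to DsRed ratio, PSI derived from sequencing read proportions per bin multiplied by bin number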
- protocol_conditions: c terminus: a fixed tail appended
Decision: protein stability index compared against 2; not below it gives 1, below it gives 0.

# bool: protein stability index of H19K >= 2
1

# bool: protein stability index of L15E >= 2
1

# bool: protein stability index of F1N >= 2
1

# bool: protein stability index of L15D >= 2
0

# bool: protein stability index of I4N >= 2
1

# bool: protein stability index of K11N >= 2
1

# bool: protein stability index of Q6G >= 2
1

# bool: protein stability index of I4H >= 2
1

# bool: protein stability index of Q6R >= 2
1

# bool: protein stability index of R16I >= 2
0

# bool: protein stability index of H19N >= 2
1

# bool: protein stability index of Q6K >= 2
1

# bool: protein stability index of M7T >= 2
0

# bool: protein stability index of R21W >= 2
1

# bool: protein stability index of K22G >= 2
0

# bool: protein stability index of D9Q >= 2
0

# bool: protein stability index of F1S >= 2
1

# bool: protein stability index of H18F >= 2
0

# bool: protein stability index of T10G >= 2
0

# bool: protein stability index of Q17I >= 2
0

# bool: protein stability index of I4W >= 2
1

# bool: protein stability index of I4Y >= 2
0

# bool: protein stability index of I4F >= 2
0

# bool: protein stability index of Q17V >= 2
0

# bool: protein stability index of K5D >= 2
1

# bool: protein stability index of C20S >= 2
1

# bool: protein stability index of H18C >= 2
1

# bool: protein stability index of N3P >= 2
1

# bool: protein stability index of K5F >= 2
1

# bool: protein stability index of G14M >= 2
0

# bool: protein stability index of T12C >= 2
1

# bool: protein stability index of C23L >= 2
1

# bool: protein stability index of T10Q >= 2
0

# bool: protein stability index of Q17L >= 2
1

# bool: protein stability index of W2R >= 2
1

# bool: protein stability index of Q17F >= 2
0

# bool: protein stability index of K5C >= 2
0

# bool: protein stability index of D9I >= 2
0

# bool: protein stability index of H18A >= 2
0

# bool: protein stability index of W2S >= 2
0

# bool: protein stability index of C20A >= 2
0

# bool: protein stability index of K5N >= 2
1

# bool: protein stability index of L13F >= 2
1

# bool: protein stability index of C23W >= 2
0

# bool: protein stability index of W8N >= 2
1

# bool: protein stability index of H19L >= 2
1

# bool: protein stability index of R21Y >= 2
1

# bool: protein stability index of H18D >= 2
1

# bool: protein stability index of R21F >= 2
0

# bool: protein stability index of I4P >= 2
1

# bool: protein stability index of N3L >= 2
0

# bool: protein stability index of K22M >= 2
0

# bool: protein stability index of L15H >= 2
1

# bool: protein stability index of W2G >= 2
0

# bool: protein stability index of K11L >= 2
0

# bool: protein stability index of T10E >= 2
1

# bool: protein stability index of R21K >= 2
1

# bool: protein stability index of L13P >= 2
1

# bool: protein stability index of R21T >= 2
1

# bool: protein stability index of C20E >= 2
1

# bool: protein stability index of C23R >= 2
1

# bool: protein stability index of H19T >= 2
0

# bool: protein stability index of H19S >= 2
1

# bool: protein stability index of H18K >= 2
0

# bool: protein stability index of C20G >= 2
0

# bool: protein stability index of K22C >= 2
0

# bool: protein stability index of K11P >= 2
1

# bool: protein stability index of R21S >= 2
1

# bool: protein stability index of R16M >= 2
0

# bool: protein stability index of W2T >= 2
0

# bool: protein stability index of T10R >= 2
1

# bool: protein stability index of H19R >= 2
0

# bool: protein stability index of L13R >= 2
1

# bool: protein stability index of C23H >= 2
1

# bool: protein stability index of W2K >= 2
1

# bool: protein stability index of R16H >= 2
1

# bool: protein stability index of M7K >= 2
1

# bool: protein stability index of W8G >= 2
1

# bool: protein stability index of W8P >= 2
1

# bool: protein stability index of G14N >= 2
1

# bool: protein stability index of R21H >= 2
0

# bool: protein stability index of C23D >= 2
1
